Answer each item with its documented IC50.
study system: prolyl endopeptidase (PEP), rat brain extract (Rattus norvegicus, UniProt O70196)
Construct: the supernatant, containing the enzyme, was collected; from tissue; host or cells: rat (Sprague-Dawley, male) whole brain without cerebellum, 40000 g supernatant
Sequence (O70196 1-710): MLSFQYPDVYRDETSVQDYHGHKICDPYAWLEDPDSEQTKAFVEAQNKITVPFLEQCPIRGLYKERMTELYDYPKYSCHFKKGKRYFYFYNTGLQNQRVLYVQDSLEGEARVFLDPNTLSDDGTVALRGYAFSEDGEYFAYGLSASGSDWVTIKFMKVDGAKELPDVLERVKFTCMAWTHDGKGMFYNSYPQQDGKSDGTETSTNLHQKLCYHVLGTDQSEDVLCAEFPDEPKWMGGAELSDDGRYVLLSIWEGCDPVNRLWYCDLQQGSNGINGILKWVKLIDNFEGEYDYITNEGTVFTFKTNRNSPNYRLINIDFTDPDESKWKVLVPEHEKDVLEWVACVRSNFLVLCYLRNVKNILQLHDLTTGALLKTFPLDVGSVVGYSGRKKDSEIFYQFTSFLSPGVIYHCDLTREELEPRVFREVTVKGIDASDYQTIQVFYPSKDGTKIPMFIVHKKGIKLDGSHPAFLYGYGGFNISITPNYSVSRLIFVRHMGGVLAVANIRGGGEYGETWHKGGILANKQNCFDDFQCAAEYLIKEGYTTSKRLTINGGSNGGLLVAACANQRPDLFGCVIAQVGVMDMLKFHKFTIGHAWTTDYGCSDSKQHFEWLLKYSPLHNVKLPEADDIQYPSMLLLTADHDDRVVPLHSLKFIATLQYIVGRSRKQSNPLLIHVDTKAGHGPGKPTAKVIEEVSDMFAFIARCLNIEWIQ
protocol description: PEP activity measurement on rat brain extract
Type: biochemical, rat (Sprague-Dawley)
protocol conditions: Z-glycyl-prolyl-7-amino-4-methyl-coumarin 62.5 μM, room temperature, 15 min

Consider the worked cases shown below.
Record Cc1ccc2c(c1)C(=O)N(CCC(=O)N1CSC[C@H]1C(=O)N1CCSC1)C2=O [Example 31] / prolyl endopeptidase (PEP), rat brain extract (Rattus norvegicus, UniProt O70196), IC50 recorded as 360 pM

Record O=C([C@@H]1C[S+]([O-])CN1C(=O)CCCN1C(=O)Nc2ccc([N+](=O)[O-])cc2S1(=O)=O)N1CCCC1 (stereo partly drawn) [Example 171] / prolyl endopeptidase (PEP), rat brain extract (Rattus norvegicus, UniProt O70196), IC50 recorded as 451 pM

For the next question, use this compound.
Record O=C([C@@H]1CSCN1C(=O)CCN1C(=O)c2cccc3cccc(c23)C1=O)N1CCSC1 [Example 123] / prolyl endopeptidase (PEP), rat brain extract (Rattus norvegicus, UniProt O70196), IC50 recorded as 278 pM
